The reported numbers originate from a melting point compilation (Tetko et al.).

Property label: melting point

# Input smiles, melting point
records = [
    ("Cc1cc2c(nn1)CCc1nonc1-2", "143 to 145 °C"),
    ("C=C(NC(C)=O)C(=O)O", "184 to 187 °C"),
    ("COc1ccc2cc(Br)ccc2c1CC#N", "147 to 148 °C"),
    ("COC(=O)c1cc(C(C)=O)ccc1O", "60 to 61 °C"),
    ("O=C(Nc1ccccc1NC(=O)c1ccccc1)c1ccccc1", "301 to 302 °C"),
]

Now examine the next entry.
**Query** Param item = CCCC(=O)Oc1c[nH]c2cc(Cl)ccc12 ; retrieve measured melting point.
**Result** 98 to 102 °C
